Tested on: Escherichia coli K-12 LA 290 R 56
Exercise: state measured MIC for each of the molecules provided.
Could you give me the number in mg/L? Just the number is fine.

Look up and report measured MIC for this entry: NC[C@@H]1O[C@H](O[C@H]2[C@@H](O)[C@H](O[C@@H]3[C@@H](O)[C@H](N)C[C@H](N)[C@H]3O[C@H]3O[C@H](CO)[C@@H](O)C[C@H]3N)O[C@@H]2CO)[C@H](N)[C@@H](O)[C@@H]1O [LVB, lividomycin B, reference compound]
3.12

For the molecule NC[C@@H]1O[C@H](O[C@H]2[C@@H](O)[C@H](O[C@@H]3[C@@H](O)[C@H](N)C[C@H](N)[C@H]3O[C@H]3O[C@H](CNCCO)[C@@H](O)C[C@H]3N)O[C@@H]2CO)[C@H](N)[C@@H](O)[C@@H]1O , give its reported MIC.
0.78

Write down MIC measured for item CNC[C@H]1O[C@H](O[C@H]2[C@H](O[C@@H]3O[C@H](CO)[C@@H](O[C@H]4O[C@@H](CN)[C@@H](O)[C@H](O)[C@H]4N)[C@H]3O)[C@@H](O)[C@H](N)C[C@@H]2N)[C@H](N)C[C@@H]1O
1.56

Name the recorded MIC of the item NC[C@@H]1O[C@H](O[C@H]2[C@@H](O)[C@H](O[C@@H]3[C@@H](O)[C@H](N)C[C@H](N)[C@H]3O[C@H]3O[C@H](CN)[C@@H](O)C[C@H]3N)O[C@@H]2CO)[C@H](N)[C@@H](O)[C@@H]1O in your answer.
0.39

Cited source: patent US3956274A
